assay: Clearance in mouse at 25 mg/kg, ip; assay type: ADME, organism-based; parameters: dose 25 mg/kg, route intraperitoneal; conditions: in vivo
Outcome measure: CL/F
Just so you know, I need the unit written after the number.

INPUT: Provide only the value of recorded CL/F for COC[C@@H]1CCCN1C(=O)c1cc(Nc2ncc3cnn([C@@H]4C[C@H]5C[C@H]5C4)c3n2)cn1C
OUTPUT: 65 mL/min/kg

###

tested on: HCT-116; assay: Cytotoxicity against human HCT116 cells after 5 days by MTS assay; assay type: functional, cell-based; conditions: HCT-116, 120 h
Outcome measure: IC50 (nM)
Report only the number, with the unit nM understood.

{"columns": ["Compound", "Tested on", "Outcome measure", "Endpoint result"],
 "data": [
  ["O=C1N=C(NCc2cccs2)S/C1=C\\c1ccc2ncccc2c1", "HCT-116", "IC50", 3200],
  ["C[C@@H]1CCCN1C(=O)c1cc(Nc2ncc3cnn([C@@H]4C[C@H]5C[C@H]5C4)c3n2)cn1C", "HCT-116", "IC50", 130],
  ["Cn1cc(Nc2ncc3cnn([C@@H]4CC[C@H]5CCC[C@H]54)c3n2)cc1C(N)=O", "HCT-116", "IC50", 66]
]}

INPUT: Provide only the value of recorded IC50 for COC[C@@H]1CCCN1C(=O)c1cc(Nc2ncc3cnn([C@@H]4C[C@H]5C[C@H]5C4)c3n2)cn1C
OUTPUT: 10

INPUT: Provide only the value of recorded IC50 for Cn1cc(Nc2ncc3cnn([C@H]4CC[C@H]5CCC[C@H]54)c3n2)cc1C(N)=O
OUTPUT: 230

// provenance: ChEMBL document CHEMBL2010660
